Ref: ChEMBL document CHEMBL3507680

# ASSAY: Human HepG2 cell viability assay in 384 well format
# Type: toxicity, cell-based
# Design: dose 125 nL, time 70.5 hour; concentration not given beside the values
# ASSAY_SETUP: HepG2 cells, read-out: Inhibition
MEASUREMENT_LABEL: cytotoxicity at 70.5 h (%)
Form entry: value (%) — number only.

Known cytotoxicity at 70.5 h results, listed for orientation:
MOLECULE: Cc1ccc(S(=O)(=O)N[C@H](CO)C(C)C)cc1N(C)C
cytotoxicity at 70.5 h, %: -4.66
//
MOLECULE: CCS(=O)(=O)NC[C@]12COC[C@H]1CN(Cc1cccc(OC)c1)C2
cytotoxicity at 70.5 h, %: -11.2
//
MOLECULE: Cc1noc(C)c1CN1C[C@H](OCc2ccncc2)[C@H]2OCCC[C@H]21
cytotoxicity at 70.5 h, %: -13.2
//
MOLECULE: CC(C)N1CCCC1c1cc(CCO)[nH]n1 (stereo unspecified)
cytotoxicity at 70.5 h, %: -9.45
//
MOLECULE: Cc1cccc(N2CCOCC3(C2)CN(c2cnn(C)c2)C(=O)CO3)n1 (stereo unspecified)
cytotoxicity at 70.5 h, %: 16.9

Moving on to the next molecule.
Noted for CN(Cc1ccsc1)C(=O)Nc1ccc(S(C)(=O)=O)cc1 : its cytotoxicity at 70.5 h reads -1.57
